Origin of the recorded values: PubChem BioAssay (NCI)

assay.info: NCI Yeast Anticancer Drug Screen. Data for the rad18 strain (AID 177)
experimental.parameters: S. cerevisiae rad18 mutant growth inhibition; at 100.0 µM; active compounds read high
About 79,000 compounds went through this panel and 15% of them were active in at least one assay; those are over-represented in the sample as a whole.
We use 60% as the dividing line for growth inhibition: on or above the line is True, below is False.

molecule	category.label
CC(CN(C)C)C(=O)/C=C/c1ccc(Cl)c(Cl)c1 (stereo not given)	True
C/C1=C/C2OC(=O)C3(C)C2C(CC2(C)OC1=CC2=O)OC3(O)C(C)C (stereo not given)	False
O=C1CCC(Cc2ccccc2)CN1 (stereo not given)	False
CC(=O)O[C@H]1CC[C@@]2(C)C(=CC[C@@H]3C2CC[C@]2(C)C(=O)NC(=O)CC32)C1 (stereo not given in full)	False
O=C1C=C(Br)C(=O)c2ccccc21	True
COc1cc(OC)c(CSCC(NC(=O)OCC2c3ccccc3-c3ccccc32)C(=O)O)c(OC)c1 (stereo not given)	True
CCOP(=O)(OCC)/C(C#N)=C/c1ccc(-c2ccc(F)cc2F)o1	False
CC(C)=CCC/C(C)=C/CN1C(=O)C=CC1=O	True
O=C(CCCN1CCC(Nc2ccc(F)cc2)(c2nnnn2C2CCCCC2)CC1)c1ccc(F)cc1	True
